- System: Muskelrelax. + Sedierung Maus
- protocol: Muscle relaxation and sedation (Versuch 3)
- Assay type: in vivo
- conditions-used: mouse; method text not readable (image)
The following compounds are shown together with reported ED50 values.
measured-endpoint: ED50

> print(dat)
                                   compound  experimental.value
1  CC(C)N1CCOC(COc2cc(Br)c(N)c(Br)c2)C1 (stereo not drawn)            60 mg/kg
2  CCOc1ccccc1OCC1CNCCO1 (stereo not drawn) [F, reference compound]          ~200 mg/kg
3  CC(C)(C)N1CCOC(COc2cc(Br)cc(Br)c2N)C1 (stereo not drawn)         > 200 mg/kg
4  Nc1c(Br)cc(Br)cc1OCC1CNCCO1 (stereo not drawn)         > 200 mg/kg
5  CC(C)N1CCOC(COc2cc(Br)c(Cl)cc2N)C1 (stereo not drawn)         > 200 mg/kg
6  Nc1c(Br)cc(OCC2CNCCO2)cc1Br (stereo not drawn)            21 mg/kg
